Consider the following compounds; for each one, report its %Inh.
- System: RIOK1
- Condition: concentration: 1 μM, replicates: in singlicate; n = 1;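 further: KINOMEscan kinase panel screen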
Give your result as the value with the unit written after it.

*Q* Param readout = %Inh; param system = RIOK1; param query = CSc1nn2c(=O)cc(N3CCOCC3)nc2n1Cc1cccc(Cl)c1Cl ; response: value
*A* 34%

*Q* Input Cl.c1ccc(Cn2ccc3cc(Nc4ncnc5ccccc45)ccc32)cc1
*A* 20%

*Q* Likewise for N#Cc1ccc(Oc2ccc(Nc3ncnc4cc[nH]c34)cc2Cl)cc1 ?
*A* 21%

*Q* FC(F)(F)c1ccc(-c2nn3ncccc3c2-c2ccnc(Nc3cccc(C(F)(F)F)c3)n2)cc1 , same question.
*A* 26%

*Q* For Cl.c1ccc(Cn2ncc3cc(Nc4ncnc5ccccc45)ccc32)cc1 then?
*A* 39%

---

- Test system: FLT4
- Condition: concentration: 1 μM, replicates: in singlicate; n = 1
Observation Type: %Inh (%)
// return numeric value only (unit: %, not printed)

*Q* // query %Inh value for entry Cn1ccc2ncnc(Oc3ccc(NC(=O)Nc4cccnc4)c(Cl)c3)c21
*A* 37

*Q* Another compound to check: CSc1ccc(NC2=C(c3ccccc3Cl)C(=O)NC2=O)cc1 [SB-342411]
*A* 1

*Q* Same again, this time with COc1ccc(Nc2nccc(N3CCC(NC(=O)c4cccc(NC(C)=O)c4)C3)n2)cc1 (stereo not drawn) [GSK1379732]
*A* 6

*Q* Next up: CCCc1ccc(S(=O)(=O)NC2CCN(c3ccnc(Nc4ccc(OC)cc4)n3)C2)cc1 (stereo not drawn) [GSK1379737]
*A* 9

*Q* # iterate: CN1c2ccc(-c3ccc(C(=O)NCCO)cc3)cc2-c2[nH]ncc2S1(=O)=O
*A* 7

*Q* Can you check COc1ccc(NC(=O)c2ccc(-c3cc(-c4nnc(C)o4)ccc3C)cc2)cc1 [GW595885] next?
*A* 0

*Q* Next compound up: Clc1cc(Nc2ncnc3cc[nH]c23)ccc1OCc1ccccn1
*A* 0

*Q* Now the same for CCC(CC)(CC)n1cnc2c(N)ncnc21 [SKF-97620]
*A* 0

*Q* Now consider Cl.c1ccc(Cn2ncc3cc(Nc4ncnc5ccccc45)ccc32)cc1 [GW273749] and answer again.
*A* 8

*Q* Consider next the compound Cl.O=S(=O)(c1cccc(F)c1)c1ccc(Nc2ncnc3cc(Br)sc23)cc1Cl [GSK306886] in the same way.
*A* 98.1

*Q* What do we get for CC(C)N1CCC(n2cnc(-c3ccc(F)cc3)c2-c2ccnc(N)n2)CC1 [SB-223132] ?
*A* 0

*Q* Queued: Cc1cc(N2CCC(NS(=O)(=O)c3ccc(F)cc3)CC2)nc(Nc2cccc(C#N)c2)n1.O=C(O)C(F)(F)F [GSK1653537]
*A* 0

*Q* Can you check CN1CCC(n2cnc(-c3ccc(F)cc3)c2-c2ccnc(NC3CCNCC3)n2)CC1 [SB-229482] next?
*A* 0

*Q* Same again, this time with NC(=O)c1sc(-n2cnc3ccccc32)cc1OCc1ccccc1F [GSK1024306]
*A* 27

*Q* // query: O=C(Nc1ccccc1F)NC1CCN(c2ccnc(Nc3ccc(F)cc3)n2)C1 (stereo not drawn) [GSK1379722]
*A* 14

*Q* Repeat for the following compound: C[C@@H]1CCN(C(=O)CO)C[C@@H]1N(C)c1ncnc2[nH]ccc12
*A* 0

*Q* Now the same for CCc1nc(-c2cccc(C)c2)c(-c2ccnc(NC(=O)c3ccccc3)c2)s1
*A* 8

*Q* Follow-up entry: C[C@H]1CC[C@@H](C(=O)Nc2ccccc2)CN1c1cc(-c2ccc3c(N)n[nH]c3c2)nc(N)n1 [GSK2283293]
*A* 4

# credit: paper PMC5540273
